ASSAY SYSTEM: KRas G13D (Homo sapiens, UniProt P01116, G13D)
Construct: Biotinylated KRas (corresponding to amino acids 1-169, produced at Accelegan Inc.); biotin (biotinylated); purchased Accelegan Inc
Sequence (P01116 1-169 isoform P01116-2 G13D): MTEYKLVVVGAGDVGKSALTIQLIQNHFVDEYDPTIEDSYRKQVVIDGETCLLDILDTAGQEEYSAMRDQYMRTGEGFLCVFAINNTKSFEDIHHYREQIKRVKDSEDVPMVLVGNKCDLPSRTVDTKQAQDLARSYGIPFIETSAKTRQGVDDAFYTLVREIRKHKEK
METHOD SUMMARY: KRas binding assay (TR-FRET displacement)
ASSAY METRIC: IC50 (nM)

Would you please look over these solved cases?
molecule="Oc1nc(CCCNc2nc(OCC34CCCN3CCC4)nc3c(F)c(-c4cccc5cccc(Cl)c45)ncc23)n[nH]1 [Example 103]" assay_metric=IC50 assay_result=4210
molecule="CC1(O)COCCN(c2nc(OCC34CCCN3CCC4)nc3c(F)c(-c4cccc5cccc(F)c45)ncc23)C1 (stereo not shown) [Example 64]" assay_metric=IC50 assay_result=1360
molecule="Nc1ncccc1CNc1nc(OCC23CCCN2CCC3)nc2c(F)c(-c3cccc4cccc(F)c34)ncc12 [Example 70]" assay_metric=IC50 assay_result=11700

a = Fc1c(-c2cccc3cccc(F)c23)ncc2c(NCCc3ccn[nH]3)nc(OCC34CCCN3CCC4)nc12 [Example 215]
b = O=C1CC(CNc2nc(OCC34CCCN3CCC4)nc3c(F)c(-c4cccc5cccc(Cl)c45)ncc23)CN1 (stereo not shown) [Example 102]
c = CC1CC(O)CCN(c2nc(OCC34CCCN3CCC4)nc3c(F)c(-c4cccc5cccc(F)c45)ncc23)C1 (stereo not shown) [Example 116]
d = O=C1CC(CNc2nc(OCC34CCCN3CCC4)nc3c(F)c(-c4cccc5cccc(F)c45)ncc23)CN1 (stereo not shown) [Example 29]
Rank the 4 molecules: largest IC50 first, smallest last. Output the labels ranked as instructed. a, d, c, b
(a: 47100 nM, d: 8190 nM, c: 2700 nM, b: 769 nM)

P = OC1CC2(CCCN(c3nc(OCC45CCCN4CCC5)nc4c(F)c(-c5cccc6cccc(F)c56)ncc34)C2)C1 (stereo not shown) [Example 235]
Q = OCC12CC(Nc3nc(OCC45CCCN4CCC5)nc4c(F)c(-c5cccc6cccc(F)c56)ncc34)(C1)C2 [Example 85]
Please choose the item with the lower IC50 value from this pair: P and Q Respond using the label that marks the chosen record. P
(P: 2710 nM, Q: 4660 nM)

A = O=S1(=O)CC(Nc2nc(OCC34CCCN3CCC4)nc3c(F)c(-c4cccc5cccc(F)c45)ncc23)C1 [Example 95]
B = O=C1NCC12CCCN(c1nc(OCC34CCCN3CCC4)nc3c(F)c(-c4cccc5cccc(F)c45)ncc13)C2 (stereo not shown) [Example 98]
Please choose the item with the lower IC50 value from this pair: A and B Respond using the label that marks the chosen record. B
(B: 3210 nM, A: 7180 nM)

###

ASSAY SYSTEM: KRas G12A (Homo sapiens, UniProt P01116, G12A);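 also: binding to KRas measured by TR-FRET displacement after one hour at room temperature, IC50 from a four-parameter fit of percent-of-control values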
Sequence (P01116 1-169 isoform P01116-2 G12A): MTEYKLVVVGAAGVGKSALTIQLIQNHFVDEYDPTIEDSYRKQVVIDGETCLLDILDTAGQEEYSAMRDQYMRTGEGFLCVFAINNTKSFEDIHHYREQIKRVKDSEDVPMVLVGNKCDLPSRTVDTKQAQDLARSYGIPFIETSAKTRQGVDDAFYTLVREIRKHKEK
METHOD SUMMARY: biochemical
pIC50: −log10 of the molar value.
ASSAY METRIC: pIC50

Would you please look over these solved cases?
molecule=Cn1ncc2ccc(Nc3nc(OCC45CCCN4CCC5)nc4c(F)c(-c5cccc6cccc(F)c56)ncc34)cc21 assay_metric=pIC50 assay_result=4.87
molecule="CCc1cccc2cccc(-c3ncc4c(N5CCCC6(CNC(=O)N6)C5)nc(OCC56CCCN5CCC6)nc4c3F)c12 (stereo not drawn)" assay_metric=pIC50 assay_result=7.89
molecule="OCC1CN(c2nc(OCC34CCCN3CCC4)nc3c(F)c(-c4cccc5cccc(F)c45)ncc23)CCC1O (stereo not drawn)" assay_metric=pIC50 assay_result=5.04
molecule=OCc1cc2n(n1)CCCN(c1nc(OCC34CCCN3CCC4)nc3c(F)c(-c4cccc5cccc(F)c45)ncc13)C2 assay_metric=pIC50 assay_result=5.24
molecule=NC(=O)c1cc2n(n1)CCCN(c1nc(OCC34CCCN3CCC4)nc3c(F)c(-c4cccc5cccc(F)c45)ncc13)C2 assay_metric=pIC50 assay_result=5.68

P = Fc1c(-c2cccc3cccc(F)c23)ncc2c(NCc3cn[nH]c3)nc(OCC34CCCN3CCC4)nc12
Q = O=C1NC(=O)C2(CCCN(c3nc(OCC45CCCN4CCC5)nc4c(F)c(-c5cccc6cccc(CF)c56)ncc34)C2)N1 (stereo not drawn)
R = O=C1NC(=O)C2(CCCN(c3nc(OCC45CCCN4CCC5)nc4c(F)c(-c5cccc6cccc(CO)c56)ncc34)C2)N1 (stereo not drawn)
Rank the 3 molecules: largest pIC50 first, smallest last. Output the labels ranked as instructed. Q, R, P

I = Fc1c(-c2cccc3cccc(F)c23)ncc2c(NCCNc3cccnc3)nc(OCC34CCCN3CCC4)nc12
II = CN(Cc1c[nH]c2ncccc12)c1nc(OCC23CCCN2CCC3)nc2c(F)c(-c3cccc4cccc(F)c34)ncc12
Please choose the item with the lower pIC50 value from this pair: I and II Respond using the label that marks the chosen record. I

###

ASSAY SYSTEM: KRas G12D (Homo sapiens, UniProt P01116, G12D);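 also: TR-FRET displacement binding assay on KRas, read after a one-hour incubation at room temperature, IC50 fitted from percent-of-control values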
Sequence (P01116 1-169 isoform P01116-2 G12D): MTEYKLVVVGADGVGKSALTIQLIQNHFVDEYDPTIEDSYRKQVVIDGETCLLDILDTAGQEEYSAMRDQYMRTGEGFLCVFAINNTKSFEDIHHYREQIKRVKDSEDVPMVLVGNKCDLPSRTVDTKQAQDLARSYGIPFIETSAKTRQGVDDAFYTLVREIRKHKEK
METHOD SUMMARY: biochemical
ASSAY METRIC: IC50 (nM)

Would you please look over these solved cases?
molecule="O=S1(=O)CCCN1C1CCCN(c2nc(OCC34CCCN3CCC4)nc3c(F)c(-c4cccc5cccc(F)c45)ncc23)C1 (centres unmarked) [Example 239]" assay_system="KRas G12D (Homo sapiens, UniProt P01116, G12D)" assay_result=8650
molecule="Fc1c(-c2cccc3cccc(F)c23)ncc2c(N3CCCC4(CSC4)C3)nc(OCC34CCCN3CCC4)nc12 [Example 262]" assay_system="KRas G12D (Homo sapiens, UniProt P01116, G12D)" assay_result=960
molecule="CC1CCCN(c2nc(OCC34CCCN3CCC4)nc3c(F)c(-c4cccc5cccc(F)c45)ncc23)C1 (centres unmarked) [Example 22]" assay_system="KRas G12D (Homo sapiens, UniProt P01116, G12D)" assay_result=9970
molecule="CNC(=O)c1cc2n(n1)CCCN(c1nc(OCC34CCCN3CCC4)nc3c(F)c(-c4cccc5cccc(F)c45)ncc13)C2 [Example 259]" assay_system="KRas G12D (Homo sapiens, UniProt P01116, G12D)" assay_result=158

A = Cc1cc(-c2ncc3c(N4CCCC(C)(O)C4)nc(OCC45CCCN4CCC5)nc3c2F)c2cn[nH]c2c1 (centres unmarked) [Example 431]
B = CC1(O)COCCN(c2nc(OC[C@@]34CCCN3C[C@H](F)C4)nc3c(F)c(-c4cc(O)cc5ccc(F)c(Cl)c45)ncc23)C1 (some centres unmarked) [Example 419]
C = OCC1CN(c2nc(OCC34CCCN3CCC4)nc3c(F)c(-c4cccc5cccc(F)c45)ncc23)CCCO1 (centres unmarked) [Example 269]
Rank the 3 molecules: largest IC50 first, smallest last. Output the labels ranked as instructed. A, C, B
(A: 9620 nM, C: 1910 nM, B: 3 nM)

###

ASSAY SYSTEM: KRas Q61H (Homo sapiens, UniProt P01116, Q61H)
Construct: Biotinylated KRas (corresponding to amino acids 1-169, produced at Accelegan Inc.); biotin (biotinylated); purchased Accelegan Inc
Sequence (P01116 1-169 isoform P01116-2 Q61H): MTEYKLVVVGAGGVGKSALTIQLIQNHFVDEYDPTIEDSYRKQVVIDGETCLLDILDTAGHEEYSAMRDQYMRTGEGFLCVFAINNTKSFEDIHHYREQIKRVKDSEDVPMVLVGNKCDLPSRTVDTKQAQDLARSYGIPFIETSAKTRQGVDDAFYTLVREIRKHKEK
METHOD SUMMARY: KRas binding assay (TR-FRET displacement)
ASSAY METRIC: IC50 (nM)

molecule="OCC1CCCCN(c2nc(OCC34CCCN3CCC4)nc3c(F)c(-c4cccc5cccc(F)c45)ncc23)C1 (stereo not drawn)" assay_metric=IC50 assay_result=21900

P = O=C1NCC12CCCN(c1nc(OCC34CCCN3CCC4)nc3c(F)c(-c4cccc5cccc(F)c45)ncc13)C2 (stereo not drawn)
Q = C[C@H]1C[C@H]1c1c(Cl)cc2[nH]ncc2c1-c1ncc2c(N3CCC[C@@](C)(O)C3)nc(OC[C@@]34CCCN3C[C@H](F)C4)nc2c1F (racemic)
Between the two listed entries P and Q , which has its IC50 at the higher number? Respond using the label that marks the chosen record. P
(P: 4770 nM, Q: 7 nM)

###

System: pERK in HCT116 cells
METHOD SUMMARY: Inhibition of KRas phosphorylation of ERK (Cisbio HTRF pERK assay)
REPORTED CONDITIONS: Homo sapiens, HCT-116, read-out: Inhibition (HTRF IC50) of KRas-mediated Phosphorylation of ERK, HCT116
pIC50: −log10 of the molar value.
ASSAY METRIC: pIC50

Would you please look over these solved cases?
molecule="NS(=O)(=O)CC1CCCN(c2nc(OC[C@@]34CCCN3C[C@H](F)C4)nc3c(F)c(-c4cc(O)cc5ccc(F)c(Cl)c45)ncc23)C1 (stereo partly drawn) [Example 414]" assay_result=6.29
molecule="Oc1cc(-c2ncc3c(N4CCCC5(CC(O)C5)C4)nc(OC[C@@]45CCCN4C[C@H](F)C5)nc3c2F)c2c(Br)c(F)ccc2c1 (stereo partly drawn) [Example 407]" assay_result=7.39
molecule="CCc1c(F)ccc2cc(O)cc(-c3ncc4c(N5CCCCC6(C5)NC(=O)NC6=O)nc(OC[C@@]56CCCN5C[C@H](F)C6)nc4c3F)c12 (stereo partly drawn) [Example 338]" assay_result=6.31

1 = CCc1c(F)ccc2cc(O)cc(-c3ncc4c(N5CCCC6(CNS(=O)(=O)N6)C5)nc(OC[C@@]56CCCN5C[C@H](F)C6)nc4c3F)c12 (stereo partly drawn) [Example 330]
2 = CCc1c(F)ccc2cc(O)cc(-c3ncc4c(N5CCCC(C#N)CC5)nc(OC[C@@]56CCCN5C[C@H](F)C6)nc4c3F)c12 (stereo partly drawn) [Example 173]
3 = Cc1c(F)ccc2cc(O)cc(-c3ncc4c(N5CCCC(CS(N)(=O)=O)C5)nc(OC[C@@]56CCCN5C[C@H](F)C6)nc4c3F)c12 (stereo partly drawn) [Example 461]
# rank by pIC50, ascending (min first) Output the labels ranked as instructed. 2, 3, 1
